The following compounds are shown together with reported EC50 values.
- experimental.system: Cholecystokinin receptor type A (Homo sapiens, UniProt P32238)
- test.description: Agonist activity at human CCK1R expressed in human 1321N1 cells assessed as IP1 accumulation after 1 hr by HTRF assay
Numbered stars: 1 amine (or outer) side, 2 acyl side, 3 side chain; on linkers, the order of the positions; unused ones are H or OH. Square brackets hold non-standard residues; d marks the D form. Peptide text beside a SMILES is read from it. * marks the point of attachment. sY = N[C@@H](Cc1ccc(OS(=O)(=O)O)cc1)C(=O)O; C18 diacid = O=C(O)CCCCCCCCCCCCCCCCC(=O)*; NMe1Nal = CN[C@@H](Cc1cccc2ccccc12)C(=O)O; γGlu = O=C(O)[C@H](CCC(=O)[*:2])N[*:1]; NMeD = CN[C@@H](CC(=O)O)C(=O)O; Nle = CCCC[C@H](N)C(=O)O; AEEA = NCCOCCOCC(=O)O

{"compound": "CCCC[C@H](NC(=O)[C@H](Cc1c[nH]c2ccccc12)NC(=O)[C@H](CCC(=O)O)NC(=O)[C@H](CCCC)NC(=O)[C@H](Cc1ccc(OS(=O)(=O)O)cc1)NC(=O)[C@H](CC(=O)O)NC(=O)COCCOCCNC(=O)COCCOCCNC(=O)CC[C@H](NC(=O)CCCCCCCCCCCCCCCCC(=O)O)C(=O)O)C(=O)N[C@@H](CC(=O)O)C(=O)N[C@@H](Cc1ccccc1)C(N)=O ({C18 diacid-γGlu-AEEA-AEEA}-D[sY][Nle]EW[Nle]DF-NH2)", "censoring.operator": ">", "EC50 (nM)": 1000}
{"compound": "CCCC[C@H](NC(=O)[C@H](Cc1c[nH]c2ccccc12)NC(=O)CNC(=O)[C@H](CC(C)C)NC(=O)[C@H](Cc1ccc(OS(=O)(=O)O)cc1)NC(=O)[C@H](CC(=O)O)NC(=O)COCCOCCNC(=O)COCCOCCNC(=O)CC[C@H](NC(=O)CCCCCCCCCCCCCCCCC(=O)O)C(=O)O)C(=O)N(C)[C@@H](CC(=O)O)C(=O)N(C)[C@@H](Cc1cccc2ccccc12)C(N)=O ({C18 diacid-γGlu-AEEA-AEEA}-D[sY]LGW[Nle][NMeD][NMe1Nal]-NH2)", "censoring.operator": "=", "EC50 (nM)": 0.501}
{"compound": "CCCC[C@H](NC(=O)[C@H](Cc1ccc(OS(=O)(=O)O)cc1)NC(=O)[C@H](CC(=O)O)NC(=O)COCCOCCNC(=O)COCCOCCNC(=O)CC[C@H](NC(=O)CCCCCCCCCCCCCCCCC(=O)O)C(=O)O)C(=O)NCC(=O)N[C@@H](Cc1c[nH]c2ccccc12)C(=O)N[C@@H](CCC(N)=O)C(=O)N[C@@H](CC(=O)O)C(=O)N[C@@H](Cc1ccccc1)C(N)=O ({C18 diacid-γGlu-AEEA-AEEA}-D[sY][Nle]GWQDF-NH2)", "censoring.operator": "=", "EC50 (nM)": 0.162}
{"compound": "CCCC[C@H](NC(=O)[C@H](Cc1c[nH]c2ccccc12)NC(=O)[C@H](CCCCN)NC(=O)[C@H](CCCC)NC(=O)[C@H](Cc1ccc(OS(=O)(=O)O)cc1)NC(=O)[C@H](CC(=O)O)NC(=O)COCCOCCNC(=O)COCCOCCNC(=O)CC[C@H](NC(=O)CCCCCCCCCCCCCCCCC(=O)O)C(=O)O)C(=O)N[C@@H](CC(=O)O)C(=O)N[C@@H](Cc1ccccc1)C(N)=O ({C18 diacid-γGlu-AEEA-AEEA}-D[sY][Nle]KW[Nle]DF-NH2)", "censoring.operator": "=", "EC50 (nM)": 912}
{"compound": "CCCC[C@H](NC(=O)[C@H](Cc1ccc(O)cc1)NC(=O)[C@H](CC(=O)O)NC(=O)COCCOCCNC(=O)COCCOCCNC(=O)CC[C@H](NC(=O)CCCCCCCCCCCCCCCCC(=O)O)C(=O)O)C(=O)NCC(=O)N[C@@H](Cc1c[nH]c2ccccc12)C(=O)N[C@@H](CCCCNC(=O)Nc1ccccc1C)C(=O)N[C@@H](CC(=O)O)C(=O)N(C)[C@@H](Cc1ccccc1)C(N)=O", "censoring.operator": "=", "EC50 (nM)": 0.107}

---

- experimental.system: Gastrin/cholecystokinin type B receptor (Homo sapiens, UniProt P32239)
- Sequence (P32239 whole entry): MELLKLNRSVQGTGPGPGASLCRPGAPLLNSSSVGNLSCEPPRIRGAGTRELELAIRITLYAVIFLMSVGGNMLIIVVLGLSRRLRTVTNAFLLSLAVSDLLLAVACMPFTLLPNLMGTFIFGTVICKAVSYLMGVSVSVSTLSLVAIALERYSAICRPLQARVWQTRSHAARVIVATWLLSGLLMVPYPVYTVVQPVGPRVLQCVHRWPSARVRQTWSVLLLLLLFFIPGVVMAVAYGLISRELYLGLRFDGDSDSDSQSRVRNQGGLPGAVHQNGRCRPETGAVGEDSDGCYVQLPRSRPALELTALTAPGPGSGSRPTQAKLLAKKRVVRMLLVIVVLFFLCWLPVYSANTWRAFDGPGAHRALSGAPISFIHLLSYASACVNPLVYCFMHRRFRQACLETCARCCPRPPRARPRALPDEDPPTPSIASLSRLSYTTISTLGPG
- test.description: Displacement of [125I]-CCK-8 from human CCK2R expressed in human 1321N1 cell membranes after 2 hrs by SPA assay
Numbered stars: 1 amine (or outer) side, 2 acyl side, 3 side chain; on linkers, the order of the positions; unused ones are H or OH. Square brackets hold non-standard residues; d marks the D form. Side chains are listed from the residue outwards. Peptide text beside a SMILES is read from it. * marks the point of attachment. Ala(indol-2-yl) = N[C@@H](Cc1cc2ccccc2[nH]1)C(=O)O; sY = N[C@@H](Cc1ccc(OS(=O)(=O)O)cc1)C(=O)O; C18 diacid = O=C(O)CCCCCCCCCCCCCCCCC(=O)*; γGlu = O=C(O)[C@H](CCC(=O)[*:2])N[*:1]; NMeF = CN[C@@H](Cc1ccccc1)C(=O)O; NMeD = CN[C@@H](CC(=O)O)C(=O)O; Nle = CCCC[C@H](N)C(=O)O; AEEA = NCCOCCOCC(=O)O
quantity.kind: pIC50

{"compound": "CCCC[C@H](NC(=O)[C@H](Cc1cc2ccccc2[nH]1)NC(=O)CNC(=O)[C@H](CCCCNC(=O)COCCOCCNC(=O)COCCOCCNC(=O)CC[C@H](NC(=O)CCCCCCCCCCCCCCCCC(=O)O)C(=O)O)NC(=O)[C@H](Cc1ccc(OS(=O)(=O)O)cc1)NC(=O)[C@H](CC(=O)O)NC(C)=O)C(=O)N(C)[C@@H](CC(=O)O)C(=O)N(C)[C@@H](Cc1ccccc1)C(N)=O (Ac-D[sY]K([AEEA-AEEA-γGlu-C18 diacid])G[Ala(indol-2-yl)][Nle][NMeD][NMeF]-NH2)", "quantitative.result": 6.24}

---

- experimental.system: Cholecystokinin receptor type A (Homo sapiens, UniProt P32238)
- Sequence (P32238 whole entry): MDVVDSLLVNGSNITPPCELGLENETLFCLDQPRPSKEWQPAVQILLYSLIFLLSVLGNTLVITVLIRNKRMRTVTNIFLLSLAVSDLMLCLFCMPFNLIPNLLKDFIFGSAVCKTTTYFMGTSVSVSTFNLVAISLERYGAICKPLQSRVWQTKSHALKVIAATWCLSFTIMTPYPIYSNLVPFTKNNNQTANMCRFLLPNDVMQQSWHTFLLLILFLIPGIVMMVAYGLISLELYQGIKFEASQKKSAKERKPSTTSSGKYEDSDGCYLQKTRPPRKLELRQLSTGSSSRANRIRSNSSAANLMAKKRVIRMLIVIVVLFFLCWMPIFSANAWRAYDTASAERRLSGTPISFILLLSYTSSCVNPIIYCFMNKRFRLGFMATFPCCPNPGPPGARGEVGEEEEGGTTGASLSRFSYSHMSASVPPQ
- test.description: Displacement of [125I]-CCK-8 from human CCK1R expressed in human 1321N1 cell membranes after 2 hrs by SPA assay
Numbered stars: 1 amine (or outer) side, 2 acyl side, 3 side chain; on linkers, the order of the positions; unused ones are H or OH. Square brackets hold non-standard residues; d marks the D form. Peptide text beside a SMILES is read from it. * marks the point of attachment. Phe(4-CH2SO3H) = N[C@@H](Cc1ccc(CS(=O)(=O)O)cc1)C(=O)O; sY = N[C@@H](Cc1ccc(OS(=O)(=O)O)cc1)C(=O)O; C18 diacid = O=C(O)CCCCCCCCCCCCCCCCC(=O)*; γGlu = O=C(O)[C@H](CCC(=O)[*:2])N[*:1]; βAsp = O=C(O)[C@H](CC(=O)[*:2])N[*:1]; NMeF = CN[C@@H](Cc1ccccc1)C(=O)O; dNMeD = CN[C@H](CC(=O)O)C(=O)O; Nle = CCCC[C@H](N)C(=O)O; AEEA = NCCOCCOCC(=O)O
The following compounds are shown together with reported IC50 values.
quantity.kind: IC50 (nM)

{"compound": "CCCC[C@H](NC(=O)[C@H](Cc1ccc(CS(=O)(=O)O)cc1)NC(=O)C[C@H](NC(=O)COCCOCCNC(=O)COCCOCCNC(=O)CC[C@H](NC(=O)CCCCCCCCCCCCCCCCC(=O)O)C(=O)O)C(=O)O)C(=O)NCC(=O)N[C@@H](Cc1c[nH]c2ccccc12)C(=O)N[C@@H](CCCC)C(=O)N(C)[C@H](CC(=O)O)C(=O)N(C)[C@@H](Cc1ccccc1)C(N)=O ({C18 diacid-γGlu-AEEA-AEEA-βAsp}-[Phe(4-CH2SO3H)][Nle]GW[Nle][dNMeD][NMeF]-NH2)", "experimental.system": "Cholecystokinin receptor type A (Homo sapiens, UniProt P32238)", "quantitative.result": 0.0794}
{"compound": "CSCC[C@H](NC(=O)[C@H](Cc1c[nH]c2ccccc12)NC(=O)CNC(=O)[C@H](Cc1ccc(O)cc1)NC(=O)[C@H](C)NC(=O)[C@H](CCC(=O)O)NC(=O)[C@H](CCC(=O)O)NC(=O)[C@H](CCC(=O)O)NC(=O)[C@H](CCC(=O)O)NC(=O)[C@H](CCC(=O)O)NC(=O)[C@H](CC(C)C)NC(=O)[C@H](Cc1c[nH]c2ccccc12)NC(=O)[C@@H]1CCCN1C(=O)CNC(=O)[C@@H]1CCC(=O)N1)C(=O)N[C@@H](CC(=O)O)C(=O)N[C@@H](Cc1ccccc1)C(N)=O", "experimental.system": "Cholecystokinin receptor type A (Homo sapiens, UniProt P32238)", "quantitative.result": 851}
{"compound": "CCCC[C@H](NC(=O)[C@H](Cc1ccc(OS(=O)(=O)O)cc1)NC(=O)[C@H](CC(=O)O)NC(=O)COCCOCCNC(=O)COCCOCCNC(=O)CC[C@H](NC(=O)CCCCCCCCCCCCCCCCC(=O)O)C(=O)O)C(=O)NCC(=O)N[C@@H](Cc1c[nH]c2ccccc12)C(=O)N[C@@H](CCCC)C(=O)N[C@@H](CC(=O)O)C(=O)N[C@@H](Cc1ccc(O)cc1)C(N)=O ({C18 diacid-γGlu-AEEA-AEEA}-D[sY][Nle]GW[Nle]DY-NH2)", "experimental.system": "Cholecystokinin receptor type A (Homo sapiens, UniProt P32238)", "quantitative.result": 9.12}
